Observed pIC50, system SARS 3CL proteinase (Severe acute respiratory syndrome coronavirus, UniProt P0C6X7).
Scale for pIC50: -log10 of concentration given in mol/L; no unit attached.

Query block: // fetch SARS 3CL proteinase (Severe acute respiratory syndrome coronavirus, UniProt P0C6X7) pIC50 for O=c1c(O[C@@H]2OC[C@@H](O)[C@@H](O)[C@@H]2O)c(-c2ccc(O)c(O)c2)oc2cc(O)cc(O)c12 [IA-3, Quercetin-3-O-β-D-arabinopyranoside]
Result block: 4.50

Query block: Param readout= pIC50; system= SARS 3CL proteinase (Severe acute respiratory syndrome coronavirus, UniProt P0C6X7); entry= C[C@H]1O[C@@H](Oc2c(-c3ccc(O)c(O)c3)oc3cc(O)cc(O)c3c2=O)[C@H](O)[C@@H](O)[C@H]1O [IA-4, Quercetin-3-O-β-D-fucopyranoside] ; returns value.
Result block: 4.62

Query block: Value wanted: pIC50 (SARS 3CL proteinase (Severe acute respiratory syndrome coronavirus, UniProt P0C6X7)) of entry O=c1c(OC2CCCCC2)c(-c2ccc(O)c(O)c2)oc2cc(O)ccc12 [IB-1]
Result block: 4.48

* * *

# TARGET_SYSTEM: SARS 3CL proteinase (Severe acute respiratory syndrome coronavirus, UniProt P0C6X7)
# ASSAY_METHOD_TEXT: biochemical
# Type: binding, SARS-CoV
MEASURED_ATTRIBUTE: Kd (µM)
Response body: numeric value in µM, unit text excluded.

Here's what some known entries look like.
MOLECULE	Kd [µM]
O=c1c(O[C@@H]2OC[C@@H](O)[C@@H](O)[C@@H]2O)c(-c2ccc(O)c(O)c2)oc2cc(O)cc(O)c12 [IA-3, Quercetin-3-O-β-D-arabinopyranoside]	13.2
O=c1c(OC2CCCCCC2)c(-c2ccc(O)c(O)c2)oc2cc(O)ccc12	33.5
C[C@H]1O[C@@H](Oc2c(-c3ccc(O)c(O)c3)oc3cc(O)cc(O)c3c2=O)[C@H](O)[C@@H](O)[C@H]1O [IA-4, Quercetin-3-O-β-D-fucopyranoside]	104

Consider now this further molecule.
Query block: Give recorded Kd with SARS 3CL proteinase (Severe acute respiratory syndrome coronavirus, UniProt P0C6X7) for the following molecule: O=c1c(OC2CCCCC2)c(-c2ccc(O)c(O)c2)oc2cc(O)ccc12
Result block: 33.7
